These measurements were taken from a melting point compilation (Tetko et al.; mined from patent text by program, amines drawn as free bases though some values may be those of a salt).

The compounds listed here are annotated with their melting point.

// below: answered compounds
INSERT INTO measurements (compound, reported_measurement) VALUES
  ('O=C(Nc1ccc(C(F)(F)F)cc1)NC1CCOCC1', '196 to 198 °C'),
  ('N#Cc1ccsc1S(N)(=O)=O', '152 to 155 °C'),
  ('CCOC1=CC2=CCc3cc(C#N)ccc3[C@]2(Cc2ccccc2)CC1', '164 to 165 °C'),
  ('CCc1nc2c(cnn2CC)c(NC2CCOCC2)c1CNC(=O)c1cccc(C(=O)NCc2ccc(OC)c(-c3cccc(CN4CCCN(C)CC4)c3)c2)c1', '116 to 119 °C'),
  ('COc1ccc(C2(O)CCCCC2=O)c(OC)c1OC (configuration not stated)', '88 to 91 °C');

Q: Can you share its melting point? I mean this compound: C=CCn1c(=O)c2cnc(-n3ccnc3)nc2n(C(C)C)c1=O
Result: 158 to 160 °C

Q: Can you share its melting point? I mean this compound: COC(=O)CC[C@H]1CC[C@@H](NC(=O)N(NC(C)=O)c2ccc(C#N)cc2)CC1
Result: 132 to 134 °C

Q: Can you share its melting point? I mean this compound: O=C1OC(CCc2ccccc2)(c2ccccc2)CC(O)=C1SCc1cccc2ccccc12 (configuration not stated)
Result: 132 to 134 °C

Q: Can you share its melting point? I mean this compound: CCc1cc(O)nc(C)n1
Result: 118 to 119 °C

Q: Can you share its melting point? I mean this compound: CC(=NO)c1ccc(Nc2c3ccccc3nc3occc23)cc1
Result: 264 to 265 °C

Q: Can you share its melting point? I mean this compound: OC(c1cccc(Br)n1)(C(F)(F)F)C(F)(F)F
Result: 67 to 69 °C
